# credit: PubChem BioAssay AID2315

# test.name: A qHTS for Small Molecule Inhibitors of Shiga Toxin; note: 0% is about no effect
# experimental.setup: Vero cells, Shiga toxin protein synthesis inhibition reporter; at 38.7 µM, active compounds read high
Among all 290,000 compounds or so, about 27,000 (9.3%) were called active. Many of the other results were omitted from the sample, so actives are more common in it than they were.
reported.property: inhibition

Worked set:
| given.smiles | inhibition |
| --- | --- |
| Cc1cccc(N=Nc2c(O)[nH]c3ccc(F)cc23)c1 | 143% (active) |
| CC(=O)Nc1ccc(S(=O)(=O)N2CCC(C(=O)N[C@@H](Cc3ccccc3)C(=O)O)CC2)cc1 | -6.49% (inactive) |
| O=C1c2ccccc2C(=O)N1CCCc1nc(-c2ccccc2)no1 | 8.99% (inactive) |
| COc1cc(S(=O)(=O)N2CCN=C2c2ccccc2)ccc1Cl | -4.87% (inactive) |

With those in mind, consider the next molecule.
// query Please report inhibition for the following molecule: `NS(=O)(=O)c1ccc(N=Nc2c(O)[nH]c3ccc(Br)cc23)cc1`
// result 58.5% (inactive)

* * *

# test.name: A qHTS for Small Molecule Inhibitors of Shiga Toxin; note: 0% is about no effect
# experimental.setup: Vero cells, Shiga toxin protein synthesis inhibition reporter; at 38.7 µM, active compounds read high
The whole screen tested about 290,000 compounds, of which about 27,000 (9.3%) were called active. Shown is part of a subset that was picked to be rich in actives.
Listing of entries alongside the reported inhibition.
Give just the numeric value; % need not be written.

Worked set:
| molecule | inhibition (%) |
| --- | --- |
| CC(C)C[C@@H](COc1ccccc1)N1CCN(CC(C)C)CCC1=O | 6.99 |
| CCOC(=O)c1[nH]c2ccc(OC)cc2c1NC(=O)CCN1CCN(Cc2ccccc2)CC1 | -3.91 |
| COc1ccc(S(=O)(=O)NCC(=O)NCc2cc(=O)n(C)c(=O)n2C)cc1F | -4.87 |
| CCC1S/C(=N/N=C/c2ccco2)NC1=O (centres undefined) | 22 |
| O=C1c2ccccc2S(=O)(=O)N1Cc1c(F)cccc1Cl | -12.9 |

// query Please report inhibition for the following molecule: `Cc1cc(C)c(S(=O)(=O)c2ccc(F)cc2C)c(=O)[nH]1`
// result 3.7

// query Please report inhibition for the following molecule: `O=c1c2cc(-c3ccccc3)sc2nc2n1N=C(c1cccs1)CS2`
// result 100

// query Please report inhibition for the following molecule: `Cc1ccc2c(c1)N(CC(=O)N1CCC(O)CC1)C(=O)CO2`
// result 1.8

// query Please report inhibition for the following molecule: C=CCN1C(=O)C(Cc2cccc(Cl)c2)S/C1=N/N=C/c1ccco1 (centres undefined)
// result -3.82

// query Please report inhibition for the following molecule: `COc1ccc(-c2nn(-c3ccccc3)cc2C(=O)Nc2nc(CC(C)=O)ns2)cc1`
// result -2.47

// query Please report inhibition for the following molecule: `CCOC(=O)COn1c(=O)c(-c2ccc(OCC)cc2)[n+]([O-])c2ccccc21`
// result 44.1

// query Please report inhibition for the following molecule: `Cc1ccc(NC(=O)c2sc3nc(N)c(C#N)cc3c2N)cc1`
// result 63.4

// query Please report inhibition for the following molecule: CCC(C)NC(=O)C1c2ccccc2C(=O)N1Cc1ccccc1 (centres undefined)
// result -8.49

// query Please report inhibition for the following molecule: CCOC(=O)N1CCN(C(=O)C(C)NC(=O)c2ccco2)CC1 (centres undefined)
// result -4.62

// query Please report inhibition for the following molecule: `Cc1ccc(NC(=O)CCC(=O)c2ccc(Br)cc2)cc1`
// result -4.63

// query Please report inhibition for the following molecule: `c1ccc(-n2nc3ccccc3n2)cc1`
// result 25.4

// query Please report inhibition for the following molecule: `Cc1ccccc1-c1nnn(CC(=O)c2ccc(S(=O)(=O)N3CCCC3)cc2)n1`
// result -5.14

// query Please report inhibition for the following molecule: `CCOc1ccc(OCC)c(-c2c(=O)n(OCc3ccc(Cl)cc3)c3ccccc3[n+]2[O-])c1`
// result 10.2

// query Please report inhibition for the following molecule: `O=C(Nc1ccn(Cc2ccccc2F)n1)c1ccc(COc2ccc(Cl)cc2Cl)o1`
// result 21.8
